- test-target: T1, 4H335-AA
- T1 chain: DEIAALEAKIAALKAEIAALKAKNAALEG
- test: two-hybrid library CCmax;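 also: natural log of median RNA to DNA barcode read ratio; higher means stronger binding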
- condition-details: mean of both orientations
property-label: interaction score

# example entries with known answers
binder: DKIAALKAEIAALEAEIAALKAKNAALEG [4H2575-AA]
property-label: interaction score
measurement: 1.88
//
binder: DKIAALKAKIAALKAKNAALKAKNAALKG [4H2944-AA]
property-label: interaction score
measurement: -1.7
//
binder: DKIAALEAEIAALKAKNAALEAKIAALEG [4H2165-AA]
property-label: interaction score
measurement: -1.5
//
binder: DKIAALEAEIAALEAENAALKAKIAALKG [4H2078-AA]
property-label: interaction score
measurement: 0.35
//
binder: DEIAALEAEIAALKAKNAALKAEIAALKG [4H122-AA]
property-label: interaction score
measurement: -1.07

(1) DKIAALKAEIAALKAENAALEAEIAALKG [4H2642-AA]
(2) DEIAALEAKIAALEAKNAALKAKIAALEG [4H317-AA]
(3) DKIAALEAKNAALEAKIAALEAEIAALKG [4H2466-AA]
Would you mind ranking these binders by ascending interaction score? State the ranking by listing the labels in the requested order.
3, 1, 2
(3: -1.59, 1: -1.02, 2: -0.361)
